# method description: Intact half-life during simulated gastric fluid (SGF) digestion
# run parameters: SGF pH 1.5, pepsin:polypeptide 1:20 w/w, 37° C.; intact protein
Assign SGF Half-life (t½) to each entry below.
Supply the numeric figure in min, leaving out any unit text.

QUERY: Quote SGF Half-life (t½) reported for SEQID-00287: nutritive polypeptide (protein, listed as Saccharomyces cerevisiae, source: /note="strain ATCC 204508 / S288c", nutritive polypeptide) LVLGALLDTSHKFRNLDKDLCEKCAKCISMIGVLDVTKHEFKRTTYSENEVYDLNDSVQTIKFLIWVINDILV please.
RESULT: 3

QUERY: Quote SGF Half-life (t½) reported for SEQID-00265: nutritive polypeptide (protein, listed as Bos taurus) SEGDRLRVELAEKANKLQNELDNVSTLLEEAEKKGIKFAKDAAGLESQLQDTQELLQEETRQKLNLSSRIRQLEEERSSLQEQQEEEEEARRSLEKQLQALQAQLTDTKKKVDDDLGTIENLEEAKKKLLKDVEVLSQRLEEKALAYDKLEKTKTRLQQELDDLLVDLDHQRQIVSNLEKKQKKFDQLLAEEKNISARYAEERDRAEAEAREKETKALSLARALEEALEAREEAERQNKQLRADMEDLMSSKDDVGKNVHELEKSKRALE please.
RESULT: 29

QUERY: Quote SGF Half-life (t½) reported for SEQID-00298 (BS): nutritive polypeptide naturally produced in Cow (protein, listed as Bos taurus) MGLSDGEWQLVLNAWGKVEADVAGHGQEVLIRLFTGHPETLEKFDKFKHLKTEAEMKASEDLKKHGNTVLTALGGILKKKGHHEAEVKHLAESHANKHKIPVKYLEFISDAIIHVLHAKHPSDFGADAQAAMSKALELFRNDMAAQYKVLGFHG please.
RESULT: 0.1

QUERY: Quote SGF Half-life (t½) reported for SEQID-00099: nutritive polypeptide (protein, listed as Thermosynechococcus elongatus) MNQSEILEKVKAIVADQLSVDPEKVVPEASFAEDLNADSLDSVELIMALEEEFGVEIPDEEAEKLKTVQDVLDFINNKVAA please.
RESULT: 1

QUERY: Quote SGF Half-life (t½) reported for SEQID-00606: protein of the 168 nutritive polypeptide library (protein, Glycine max, protein of the 168 nutritive polypeptide library) MASEGDHHHHHHHHQDHDHHHHDHDHHHHHDGEGETNSWVGKDGKVYHSHDGLAPHSHEPIYSPGYFTRRAPPLLNRNFNERAFTVGIGGPVGTGKTALMLALCELLRENYSLAAVTNDIFTKEDGEFLVKHKALPEERIRAVETGGCPHAAIREDISINLGPLEELSNLFKADILLCESGGDNLAANFSRELADYIIYIIDVSGGDKIPRKGGPGITQADLLVINKTDLAPAIGADLAVMQRDALRMRDGGPFVFAQVKHKIGVEEIGNLVLQAWEAATGNKRH please.
RESULT: 0.3
